target: T1, recombinant purified FRα (ECL assay calibrator) (human, UniProt P15328 25-234); assay: ECL sandwich, FRα calibrator; capture 24H8.F3; binder = detection Ab
T1 construct: Calibrator of the ECL sandwich assays; also called FRα calibrator; FRα standard
T1 sequence (P15328 25-234 limits assumed): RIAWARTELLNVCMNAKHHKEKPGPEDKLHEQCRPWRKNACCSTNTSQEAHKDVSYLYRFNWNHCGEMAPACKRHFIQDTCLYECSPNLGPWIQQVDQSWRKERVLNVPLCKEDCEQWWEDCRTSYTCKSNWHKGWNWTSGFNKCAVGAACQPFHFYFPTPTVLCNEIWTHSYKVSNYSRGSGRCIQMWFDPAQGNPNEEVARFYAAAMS
Decision: Specific signal at 500 pg/mL >= 4000 yields T, all other cases yield F.

Q: Hello, I need to know if Monoclonal antibody 1C6.E12.G8 (antibody, mouse IgG1, V domains shown, Murine IgG1 kappa from hybridoma; also called ATCC PTA-123091) VH: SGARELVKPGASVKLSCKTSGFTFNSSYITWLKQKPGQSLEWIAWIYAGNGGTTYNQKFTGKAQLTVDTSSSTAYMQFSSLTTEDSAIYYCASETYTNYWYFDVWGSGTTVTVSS VL: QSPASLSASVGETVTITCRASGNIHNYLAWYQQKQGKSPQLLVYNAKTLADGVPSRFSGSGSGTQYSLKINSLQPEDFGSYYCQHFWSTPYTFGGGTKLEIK has measured Specific signal at 500 pg/mL not below 4000. Thanks!
A: F

Q: Given the entry Monoclonal antibody 1A8.G11.E7 (antibody, mouse IgG1, V domains shown, Murine IgG1 kappa from hybridoma; also called ATCC PTA-123100) VH: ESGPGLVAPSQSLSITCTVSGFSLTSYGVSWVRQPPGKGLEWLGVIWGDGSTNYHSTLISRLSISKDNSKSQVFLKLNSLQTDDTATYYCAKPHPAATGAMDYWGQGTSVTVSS VL: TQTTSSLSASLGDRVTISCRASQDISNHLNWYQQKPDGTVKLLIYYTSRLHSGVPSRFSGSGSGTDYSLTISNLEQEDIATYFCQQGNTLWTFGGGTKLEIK , answer whether its Specific signal at 500 pg/mL meets or surpasses 4000.
A: F

Q: Reported Specific signal at 500 pg/mL at or above 4000? Monoclonal antibody 19D4.B7 (antibody, mouse IgG2a, V domains shown, SULFO-TAG conjugated when used as detection antibody in the ECL assay; also called ATCC PTA-11884) VH: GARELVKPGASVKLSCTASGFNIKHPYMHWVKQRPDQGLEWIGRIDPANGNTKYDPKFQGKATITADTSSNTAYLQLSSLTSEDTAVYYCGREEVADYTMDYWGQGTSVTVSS VL: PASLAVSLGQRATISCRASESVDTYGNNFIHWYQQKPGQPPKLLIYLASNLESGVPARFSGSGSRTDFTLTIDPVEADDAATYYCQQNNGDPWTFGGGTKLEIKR
A: T

Q: Is it the case that Monoclonal antibody 1D2.D8.G10 (antibody, mouse IgG1, V domains shown, Murine IgG1 kappa from hybridoma; also called 1D2.D8.G0; ATCC PTA-123098) VH: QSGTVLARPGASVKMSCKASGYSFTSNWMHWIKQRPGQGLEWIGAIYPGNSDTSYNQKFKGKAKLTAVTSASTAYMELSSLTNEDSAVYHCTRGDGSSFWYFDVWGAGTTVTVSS VL: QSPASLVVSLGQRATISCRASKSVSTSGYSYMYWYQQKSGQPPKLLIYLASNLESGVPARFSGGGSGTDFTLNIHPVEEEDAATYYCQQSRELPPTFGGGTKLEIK has Specific signal at 500 pg/mL reaching or exceeding 4000?
A: F
